# MEASUREMENT_TARGET: TRPM4 (TRPM4b) (Homo sapiens, UniProt Q8TD43)
# Construct: full-length human TRPM4b CDS subcloned into pcI-neo, expressed in HEK293 cells (original clone in pcDNA4TO-Flag); homotetramer (known biology)
# Sequence (Q8TD43 whole entry): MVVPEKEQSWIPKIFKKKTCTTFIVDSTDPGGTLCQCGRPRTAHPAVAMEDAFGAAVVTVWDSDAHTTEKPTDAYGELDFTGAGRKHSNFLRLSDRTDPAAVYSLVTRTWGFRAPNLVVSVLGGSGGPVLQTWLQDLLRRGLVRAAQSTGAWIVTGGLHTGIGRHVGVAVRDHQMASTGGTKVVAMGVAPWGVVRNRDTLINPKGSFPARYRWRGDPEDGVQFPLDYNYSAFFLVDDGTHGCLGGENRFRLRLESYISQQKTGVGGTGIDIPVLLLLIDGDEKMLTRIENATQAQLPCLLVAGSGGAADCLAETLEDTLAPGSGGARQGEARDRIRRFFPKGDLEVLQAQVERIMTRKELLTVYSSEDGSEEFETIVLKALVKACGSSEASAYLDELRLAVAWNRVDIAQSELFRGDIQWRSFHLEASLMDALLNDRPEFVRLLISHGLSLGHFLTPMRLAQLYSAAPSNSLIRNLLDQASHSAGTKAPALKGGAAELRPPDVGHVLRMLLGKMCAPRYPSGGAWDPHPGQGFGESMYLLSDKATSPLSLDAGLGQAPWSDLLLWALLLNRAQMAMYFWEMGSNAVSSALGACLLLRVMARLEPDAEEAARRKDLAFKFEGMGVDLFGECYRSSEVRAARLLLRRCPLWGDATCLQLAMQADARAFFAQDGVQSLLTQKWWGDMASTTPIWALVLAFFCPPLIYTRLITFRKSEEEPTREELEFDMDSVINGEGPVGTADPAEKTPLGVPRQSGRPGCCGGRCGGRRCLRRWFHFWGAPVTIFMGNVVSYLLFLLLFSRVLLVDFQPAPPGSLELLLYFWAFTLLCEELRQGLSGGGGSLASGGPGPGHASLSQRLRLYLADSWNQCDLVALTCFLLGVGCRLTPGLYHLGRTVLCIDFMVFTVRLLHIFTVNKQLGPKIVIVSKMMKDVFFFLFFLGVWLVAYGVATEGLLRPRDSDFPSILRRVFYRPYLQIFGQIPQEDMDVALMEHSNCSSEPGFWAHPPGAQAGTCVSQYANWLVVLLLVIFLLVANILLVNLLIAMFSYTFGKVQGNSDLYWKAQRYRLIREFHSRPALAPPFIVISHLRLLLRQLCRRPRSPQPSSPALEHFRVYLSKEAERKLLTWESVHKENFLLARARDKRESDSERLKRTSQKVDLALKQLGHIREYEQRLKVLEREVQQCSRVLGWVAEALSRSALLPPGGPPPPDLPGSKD
# ASSAY_NOTES: inside-out patch clamp, HEK293, reactivation after desensitization, Hill fit
# CONDITION_CONTEXT: read-out: apparent EC50; Kd (abstract)
PROPERTY: pEC50
FYI, pEC50 means -log10 of a concentration in mol per litre.

Exam item: Any idea what its pEC50 is? The compound is CCCCCCCC(=O)OC[C@H](COP(=O)(O)O[C@@H]1[C@H](O)[C@H](O)[C@@H](OP(=O)(O)O)[C@H](OP(=O)(O)O)[C@H]1O)OC(=O)CCCCCCC [diC8-PI(4,5)P2]
Marked response: 5.62
